- measurement.target: DGAT1 (Homo sapiens, UniProt O75907)
- Sequence (O75907 whole entry): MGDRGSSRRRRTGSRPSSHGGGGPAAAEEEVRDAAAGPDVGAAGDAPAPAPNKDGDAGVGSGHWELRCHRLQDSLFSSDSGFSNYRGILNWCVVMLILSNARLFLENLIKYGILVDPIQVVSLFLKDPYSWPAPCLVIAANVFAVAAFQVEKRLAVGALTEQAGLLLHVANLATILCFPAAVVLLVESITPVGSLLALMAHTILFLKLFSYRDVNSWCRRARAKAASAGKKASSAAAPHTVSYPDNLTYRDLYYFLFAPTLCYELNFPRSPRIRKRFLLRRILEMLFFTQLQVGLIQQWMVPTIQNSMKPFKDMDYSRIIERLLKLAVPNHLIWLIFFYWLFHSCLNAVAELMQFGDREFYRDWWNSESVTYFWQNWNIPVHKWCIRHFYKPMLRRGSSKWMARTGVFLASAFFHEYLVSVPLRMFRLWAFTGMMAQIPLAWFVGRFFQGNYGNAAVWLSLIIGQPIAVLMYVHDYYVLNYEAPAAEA
- protocol: Human DGAT1 IC50 enzyme assay (Flashplate, 14C-labeled acyl-CoA)
- Assay type: biochemical
- Design: made in house
- study.conditions: second determination; read-out: hDGAT1 IC50(nM) Second
- Method: The ability of compounds to inhibit DGAT enzyme activity is determined by calculating IC50 values of test compounds. Ki values of DGAT1 are calculated as follows: Cheng-Prusoff equation: Ki=IC50/(1+[S]/Km) (1) Human DGAT1 IC50 (nM) Experiment Human DGAT1 activity was determined as follows: Expressing human DGAT1 enzyme, used diacylglycerol and 14C-labeled acyl-CoA as the substrate, choose PE Company Flashplate testing board to build DGAT1 enzyme reaction system. […]
measurement.label: IC50 (nM)

// known answers, use as guide
compound: Nc1ncnc2c1C(=O)N(c1ccc(-c3cn(CCC(=O)O)nc3C(F)(F)F)cc1)CCO2 [Compound 62]
IC50 / nM: 78.6
//
compound: Cc1cc(N2CCOc3ncnc(N)c3C2=O)cc(C)c1-c1c(C)nn(CC(F)(F)F)c1C [Compound 93]
IC50 / nM: 74.2
//
compound: Cc1nn(CCC(=O)O)c(C)c1-c1ccc(N2CCOc3ncnc(N)c3C2=O)cc1Cl [Compound 38]
IC50 / nM: 55
//
compound: Cc1cc(N2CCOc3ncnc(N)c3C2=O)cc(C)c1-c1cnn(CC(=O)O)c1 [Compound 67]
IC50 / nM: 50.3
//
compound: CCc1cc(N2CCOc3ncnc(N)c3C2=O)cc(CC)c1N1CCN(CC(=O)O)C1=O [Compound 19]
IC50 / nM: 66.5

a: Nc1ncnc2c1C(=O)N(c1ccc(N3CCN(CC4CC4)C3=O)c(Cl)c1)CCO2 [Compound 30]
b: Nc1ncnc2c1C(=O)N(c1ccc(-c3cnn(CC4CC4)c3)c(Cl)c1)CCO2 [Compound 87]
Req: Param metric = IC50; output whichever of a , b has the minimum value. Select an item and report its label.
Resp: a
